B1: POU domain, class 4, transcription factor 1, residues 266 to 347; numbered along this chain, Q01851 (parent)
chain: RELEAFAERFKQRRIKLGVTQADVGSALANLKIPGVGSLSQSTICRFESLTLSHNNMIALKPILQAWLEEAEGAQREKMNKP

Variants of: B1
protocol.summary: abundance fitness (aPCA) (normalised: wild type 0, dead -1); higher = more abundant; growth selection in yeast, the domain comes from the species named
recorded.conditions: Homo sapiens
Attribute: abundance fitness

Example variants with recorded abundance fitness:
Q12K: -0.029
E70T: -0.026
R76M: 0.044
A22W: -0.038
I15S: -0.138

abundance fitness for "H54Y" ?
0.057

Consider the variant "E8A" and give its measured abundance fitness.
-0.008

Quick one: abundance fitness for "L3F" ?
-0.103

So what does the record say about abundance fitness for "E72Y" ?
-0.138

Which abundance fitness value is on record for "K16H" ?
-0.029

What value of measured abundance fitness is listed for "I33A" ?
-0.139

I would be grateful if you could share the reported abundance fitness for "C45P" .
-0.18
